Reference for the values: ChEMBL document CHEMBL1909046

Target: Alpha-1B adrenergic receptor (Rattus norvegicus, UniProt P15823)
Sequence (P15823 whole entry): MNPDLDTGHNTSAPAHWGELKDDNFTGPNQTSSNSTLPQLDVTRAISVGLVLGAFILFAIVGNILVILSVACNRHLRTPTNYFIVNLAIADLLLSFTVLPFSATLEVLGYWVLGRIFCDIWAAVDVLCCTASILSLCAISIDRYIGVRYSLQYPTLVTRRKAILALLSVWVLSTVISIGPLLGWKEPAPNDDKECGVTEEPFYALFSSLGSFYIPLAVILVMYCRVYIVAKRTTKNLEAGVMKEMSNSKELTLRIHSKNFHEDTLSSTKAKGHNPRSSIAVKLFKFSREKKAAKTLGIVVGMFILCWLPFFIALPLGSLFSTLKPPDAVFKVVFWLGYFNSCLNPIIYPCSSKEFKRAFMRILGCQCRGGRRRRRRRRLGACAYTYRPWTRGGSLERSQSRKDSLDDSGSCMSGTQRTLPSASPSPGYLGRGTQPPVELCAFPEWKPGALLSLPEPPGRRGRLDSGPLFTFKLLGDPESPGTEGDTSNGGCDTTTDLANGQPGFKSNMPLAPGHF
Experiment: DRUGMATRIX: Alpha-1B adrenergic receptor radioligand binding (ligand: prazosin)
Assay type: cell membranes, Wistar, Liver, Membrane
Conditions: Not Active = under 50% inhibition at 10 µM
observable: IC50

Sample answers from the record:
{"compound": "CC#C[C@]1(O)CC[C@H]2[C@@H]3CCC4=CC(=O)CCC4=C3[C@@H](c3ccc(N(C)C)cc3)C[C@@]21C", "observable": "IC50", "result": "Not Active"}
{"compound": "CN1C(=O)OC(C)(C)C1=O", "observable": "IC50", "result": "Not Active"}
{"compound": "C=CCO", "observable": "IC50", "result": "Not Active"}
{"compound": "CO[C@@]12[C@H](COC(N)=O)C3=C(C(=O)C(C)=C(N)C3=O)N1C[C@@H]1N[C@@H]12", "observable": "IC50", "result": "Not Active"}
{"compound": "Nc1ccc(Cc2ccc(N)cc2)cc1", "observable": "IC50", "result": "Not Active"}

Would you be so kind as to report IC50 for each listed record?
1. C=CCc1ccc2c(c1)OCO2
2. CCN1C[C@]2(COC)[C@H](O)C[C@H](OC)[C@@]34[C@@H]5C[C@@]6(O)[C@H](OC(=O)c7ccccc7)[C@@H]5[C@@](OC(C)=O)([C@@H]([C@H](OC)[C@H]23)[C@@H]14)[C@@H](O)[C@@H]6OC
3. Cc1c(N)nc([C@H](CC(N)=O)NC[C@H](N)C(N)=O)nc1C(=O)N[C@H](C(=O)N[C@H](C)[C@@H](O)[C@H](C)C(=O)N[C@H](C(=O)NCCc1nc(-c2nc(C(=O)NCCC[S+](C)C)cs2)cs1)[C@@H](C)O)[C@@H](O[C@@H]1O[C@@H](CO)[C@@H](O)[C@H](O)[C@@H]1O[C@H]1O[C@H](CO)[C@@H](O)[C@H](OC(N)=O)[C@@H]1O)c1c[nH]cn1.[Br-]
4. CN(CCOc1ccc(C[C@H](Nc2ccccc2C(=O)c2ccccc2)C(=O)O)cc1)c1ccccn1
5. C#C[C@]1(O)CC[C@H]2[C@@H]3[C@H](C)CC4=C(CCC(=O)C4)[C@H]3CC[C@@]21C

1: Not Active; 2: Not Active; 3: Not Active; 4: Not Active; 5: Not Active

For each of the compounds below, state IC50.
1. COC(=O)C[C@](O)(CCC(C)(C)O)C(=O)O[C@@H]1C(OC)=C[C@]23CCCN2CCc2cc4c(cc2[C@H]13)OCO4
2. Clc1cc(Cl)c(OCC#CI)cc1Cl
3. Cc1ccc(S(=O)(=O)NC(=O)NN2CCCCCC2)cc1 [TOLAZAMIDE]
4. CS(=O)(=O)c1ccc(C2=C(c3ccccc3)C(=O)OC2)cc1

1. Not Active
2. Not Active
3. Not Active
4. Not Active

Looking for the measured IC50 of `CC(Cl)(Cl)Cl` , can you help? Not Active
